# TARGET DESC: T1, human TLR4/MD-2 receptor complex expressed on transfected cells (human, UniProt O00206 24-839; Q9Y6Y9 19-160)
# T1 construct: Tags differ by cell line: CHO-K1: N-terminal c-myc on TLR4, C-terminal c-Myc and Protein C on MD-2; also called TLR4/MD-2 complex; hTLR4/MD-2
# T1 sequence (O00206 24-839 limits assumed, chain 1 of 2): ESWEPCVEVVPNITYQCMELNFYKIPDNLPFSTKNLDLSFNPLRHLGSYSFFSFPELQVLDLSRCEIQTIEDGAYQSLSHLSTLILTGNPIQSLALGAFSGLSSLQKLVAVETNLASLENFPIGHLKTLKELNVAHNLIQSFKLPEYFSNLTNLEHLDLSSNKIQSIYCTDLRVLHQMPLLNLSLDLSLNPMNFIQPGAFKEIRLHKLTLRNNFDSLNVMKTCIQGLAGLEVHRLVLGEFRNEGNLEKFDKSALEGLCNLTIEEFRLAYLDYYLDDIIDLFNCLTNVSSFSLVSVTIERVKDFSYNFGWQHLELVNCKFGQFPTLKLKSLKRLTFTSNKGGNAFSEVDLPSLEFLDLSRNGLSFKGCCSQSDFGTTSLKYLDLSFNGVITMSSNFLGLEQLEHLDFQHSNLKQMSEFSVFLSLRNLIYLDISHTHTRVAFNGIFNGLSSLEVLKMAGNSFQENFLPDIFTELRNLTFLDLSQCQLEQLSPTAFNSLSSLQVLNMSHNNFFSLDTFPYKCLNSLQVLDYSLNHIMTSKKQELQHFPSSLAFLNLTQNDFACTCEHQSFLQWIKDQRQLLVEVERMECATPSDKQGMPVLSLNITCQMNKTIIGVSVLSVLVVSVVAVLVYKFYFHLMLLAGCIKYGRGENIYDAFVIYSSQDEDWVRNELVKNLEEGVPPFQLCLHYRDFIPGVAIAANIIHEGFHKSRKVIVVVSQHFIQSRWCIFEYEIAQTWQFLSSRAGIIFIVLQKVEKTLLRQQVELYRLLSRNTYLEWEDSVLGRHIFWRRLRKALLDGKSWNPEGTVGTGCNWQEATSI
# T1 sequence (Q9Y6Y9 19-160 R56G limits assumed, chain 2 of 2): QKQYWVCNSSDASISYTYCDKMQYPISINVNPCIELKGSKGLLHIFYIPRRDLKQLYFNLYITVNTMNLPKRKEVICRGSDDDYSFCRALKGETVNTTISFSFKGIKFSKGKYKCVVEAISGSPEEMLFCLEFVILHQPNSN
# ASSAY TEXT: flow cytometry, mock transfected vs TLR4/MD-2 transfected cells

BINDER	binding result
mu18H10 murine monoclonal antibody (antibody, mouse IgG2b, V domains shown) VH: QVQLQQSGADLVRPGALVKLSCTASGFNIKDSYIHWVKKRPEWGLEWIGWTDPENVNSIYDPRFQGKASITADTSSNTAFLQLTSLTSEDTAVYYCARGYNGVYYAMDYWGQGTTVTVSS VL: QIVLTQSPSIMSASLGEEITLTCSASSSVIYMHWYQQKSGTSPKLLIYRTYNLASGVPSRFSGSGSGTFYSLTISSVEAEDAADYYCHQWSSFPYTFGGGTKLEIKR	binds
mu16G7 murine monoclonal antibody (antibody, mouse IgG1, V domains shown) VH: QVKLQESGAELMKPGASVKISCKATGYKFSDYWIEWIKQRPGHGLEWIGEILPGSGSTNYNEDFKDKATFTSDTSSNTAYMQLSSLTSEDSAVYYCAKEERAYYFGYWGQGTTVTVSS VL: DVEMTQTPLSLPVSLGDQASISCRSSQSLENSNGNTYLNWYLQKPGQSPQLLIYRVSNRFSGVLDRFSGSGSGTDFTLKISRVEAEDLGVYFCLQVTHVPPTFGAGTKLELKR	binds
mu7E3 murine monoclonal antibody (antibody, mouse IgG1, V domains shown) VH: QVTLKESGPGILQPSQTLSLTCSFSGFSLTTYNIGVGWIRQPSGKGLEWLAHIWWNDNIYYNTVLKSRLTFSKDTSNNQVFLKIASVDIADTATYYCIRMAEGRYDAMDYWGQGTSVTVSS VL: AIQMTQSTSSLSASLGDRVTINCRASQDITNYLNWYQQKPDGTVRLLIYYTSKLHSGAPSRFSGRGSGTDYSLTISNLEQEDIATYFCQQGNTFPWTFGGGTKLEIKR	binds
mu15C1 murine monoclonal antibody (antibody, mouse IgG1, V domains shown) VH: DVQLQESGPDLIQPSQSLSLTCTVTGYSITGGYSWHWIRQFPGNKLEWMGYIHYSGYTDFNPSLKTRISITRDTSKNQFFLQLNSVTTEDTATYYCARKDPSDGFPYWGQGTLVTVSA VL: DIVMTQSPATLSVTPGDRVSLSCRASQSISDHLHWYQQKSHESPRLLIKYASHAISGIPSRFSGSGSGTDFTLSIKSVEPEDIGVYYCQNGHSFPLTFGAGTKLELKR	binds
